Source of measurements: the NIST ThermoML archive (doi:10.1021/je020159m)

# measurement parameters: 298.15 K; 101.33 kPa; Liquid; Vibrating tube method
measurement label: mass density (kg/m3)

molecule: CCCCCCCCCC
mass density (kg/m3): 726.37
--
molecule: CCCCCC
mass density (kg/m3): 655.42
--
molecule: C1CCCCC1
mass density (kg/m3): 773.92
--
molecule: C1CCOC1 [tetrahydrofuran]
mass density (kg/m3): 882.09
